test system: SF-268 CNS; assay: NCI tumour cell line growth inhibition, 48 h
METRIC: TGI

1) N#CCCN(c1ccc(C=Nc2ccccc2Cl)cc1)S(=O)(=O)c1ccccc1
> 100 µM
2) COc1cc(/C=C/C(=O)c2c(C)nc3ccccc3c2/C=C/c2ccc(C)cc2)cc(OC)c1OC
6.42 µM
3) COc1cccc(-c2nc3ccccc3c(=O)[nH]2)c1OC
> 100 µM
4) Cc1c(F)c(N)c2c(=O)cc(-c3ccc(N)c(F)c3)oc2c1F
76.7 µM
5) COC(=O)C1=C(C(=O)OC)SC(=C(Cl)C(=S)Nc2ccccc2O)S1
23.6 µM
6) C#C[C@]1(O)CC[C@H]2[C@@H]3CCC4=C/C(=N/NC(=O)c5cccc6cc7ccccc7nc56)CC[C@@H]4[C@H]3CC[C@@]21CC
> 100 µM
7) CCCCCCCCCCC(C(O)c1ccccc1)N1CCCCC1 (configuration not stated)
4.73 µM
8) CN1CC[C@]2(C)c3cc(O)ccc3CC3CCCC1C32C (some centres not stated)
> 100 µM
9) CCC[CH2][Sn]([CH2]CCC)([CH2]CCC)[O]C(=O)c1ccc(Cl)cc1Cl
0.283 µM
10) CC(=O)C(CN(Cc1ccccc1)Cc1ccccc1)C(c1ccccc1)c1c(O)c2ccccc2oc1=O (configuration not stated)
> 100 µM
11) COc1ccc(/C(=N\O)c2cc(C)c(OC)c(C)c2)cc1O
> 100 µM
12) Cc1[nH]c(=O)n2c(C)nnc2c1C(=O)Nc1cc(Cl)cc(Cl)c1
> 100 µM
13) COc1ccc2c(c1)Oc1cc(O)ccc1[C@@H]2c1ccccc1C(=O)NC(C)c1ccccc1 (some centres not stated)
52.8 µM
14) Cc1ccc2nc(-c3ccccc3)c(N=O)n2c1
> 100 µM
15) O=C(O)NCC1CCCCC1 (tested in a mixture with another compound)
38.4 µM
16) O=C(Nc1ccccc1)n1[nH]c(=O)n(-c2ccccc2)c1=O
> 100 µM
17) C1CSC(=[N+]2CC[N+](=C3SCCS3)CC2)S1
> 100 µM
18) C[C@]12C[C@@H](c3ccccc3)Nc3ccccc3N1C(c1ccccc1)=NO2
> 100 µM
19) Cc1cc(Cc2cc(C)cc(C(C)(C)C)c2O)c(O)c(Cc2cc(C)cc(C(C)(C)C)c2O)c1
9.92 µM
20) O=c1n(-c2ccccc2)c(=O)n2n1C1Cc3ccccc3C12 (configuration not stated)
> 100 µM
21) Nc1ncnc2c1ncn2C1OC(CO)C(O)C(O)C1O (configuration not stated)
> 100 µM
22) Cc1ccc(N(C(=O)Nc2ccc(F)c(Cl)c2)C2=NCC(C)S2)cc1 (configuration not stated)
> 100 µM
23) C/C(=N\NC(=O)c1ccncc1)c1ccccc1F
> 10 µM
24) Cc1cc2[nH]c(=O)c3c4ccccc4cn3c2cc1C
32.4 µM
25) COC(=O)C1(C(=O)OC)Cc2ccc(C)cc2C2=C1C(=O)c1ccccc1C2=O
48.9 µM
26) C=CC[C@@]1([C@H](C=C)COCc2ccc(OC)cc2)CC[C@]2(C)OC(C)(C)[C@@H](c3ccccc3)N2C1=S
> 100 µM
27) C=CCN1C(=O)/C(=C/c2ccc(C)cc2)NC1=S
> 100 µM
28) FC(F)(F)c1ccc(C#Cc2ccccc2C#Cc2ccccc2)cc1
> 100 µM
29) Oc1ccc(Cc2nccc3cc(O)c(O)cc23)cc1O
> 100 µM
30) CC(C)c1c(O)ccc2c1CCC1C(C)(C)CCCC21C (configuration not stated)
35.5 µM
31) O=C(NC1C=Nc2ccc([N+](=O)[O-])cc2NC1=O)c1cc(Cl)cc([N+](=O)[O-])c1 (configuration not stated)
> 100 µM
32) C[N+]1(Cc2ccc(Cl)c(Cl)c2)CCCC1C1CCCN(Cc2ccc(Cl)c(Cl)c2)C1 (configuration not stated)
> 100 µM

====

tested on: MALME-3M melanoma; assay: NCI tumour cell line growth inhibition, 48 h
Each entry below carries its recorded TGI.
METRIC: TGI (µM)

1) COc1ccc(S(=O)(=O)N/N=C/c2cc(I)cc([N+](=O)[O-])c2O)cc1OC
83.9
2) COc1ccc(S(=O)(=O)Nc2cc(/C=C\c3cc(OC)c(OC)c(OC)c3)ccc2OC)cc1
61.1
3) Cc1ccc(NC(=O)C(=O)CC(=O)c2c(C)n([O-])c3ccccc3[n+]2=O)cc1
65.2
4) C=C(C)[C@@H]1CC[C@]2(C)[C@H](CC=C3[C@@H]4[C@@H](C)[C@H](C)CC[C@]4(C(N)=O)CC[C@]32C)[C@@]1(C)CCC#N
27.9

====

Examples of compounds with documented TGI follow.
test system: A549 NSCLC; test: NCI tumour cell line growth inhibition, 48 h
METRIC: TGI

1. O=C(c1ccccc1)[C@@H]1C[C@H](Sc2ccccc2)c2cc(Cl)ccc2N1
> 100 µM
2. O=P1(c2ccccc2)C(c2ccccc2)=CC=C1c1ccccc1
> 100 µM
3. CC1(c2cccc(Cl)c2)CC(c2cccc(Cl)c2)=C(C#N)C(=C(C#N)C#N)N1 (stereo unspecified)
42.1 µM
4. COCn1cnc2c(=O)n(-c3ccc(OC)cc3)c(=S)n(-c3ccc(OC)cc3)c21
> 100 µM
5. C/C=C1/CCC2c3[nH]c4ccccc4c3CCN2C1 (stereo unspecified)
> 100 µM
6. Cc1cc(NCc2cc(Nc3ccnc4cc(Cl)ccc34)ccc2F)nc(N2CCN(C)CC2)n1
10.9 µM
7. CN(C)C=[N+]=[N-]
> 100 µM
8. CC1=C(C)C1[N+](=O)[O-]
> 100 µM
9. CN1C(=O)C(c2c[nH]c3ccccc23)N(C)C(=O)C1c1c[nH]c2ccccc12 (stereo unspecified)
> 100 µM
10. CN(C)CC1C(=O)O[C@H]2[C@H]1CC/C(COC(=O)c1cc3ccccc3[nH]1)=C\CC[C@@]1(C)O[C@@H]21 (stereo partly specified)
14.3 µM
11. O=C(O)CCSC(=O)Nc1ccccc1F
> 100 µM
12. Cc1ccc2nc(-c3ccccc3)c(N=O)n2c1
> 100 µM
13. CC(=O)N1C(NN(C)C)CCN1c1ccccc1 (stereo unspecified)
> 10 µM
14. Nc1c(C(=O)Nc2ccc(C3=NCCN3)cc2)cccc1C(=O)Nc1ccc(C2=NCCN2)cc1
> 100 µM
15. CC(C)C(Sc1nc(-c2ccccc2)c(-c2ccccc2)[nH]1)C(=O)NN (stereo unspecified)
> 100 µM
16. Cc1sc2nc(-c3ccc([N+](=O)[O-])cc3)c(/C=N/N=C(N)N)n2c1C
2.88 µM

====

system: CAKI-1 renal; assay: NCI tumour cell line growth inhibition, 48 h
METRIC: TGI

1) COc1ccc2c(c1)Oc1cc(O)ccc1[C@@H]2c1ccccc1C(=O)NC(C)c1ccccc1 (stereo partly drawn)
42.2 µM
2) O=c1n(-c2ccccc2)c(=O)n2n1C1Cc3ccccc3C12 (stereo not drawn)
> 100 µM
3) COc1cc(Cl)cc(-c2nn(-c3cccc(NC(=O)Nc4cc(C(F)(F)F)cc(C(F)(F)F)c4)c3)cc2-c2ccncc2)c1
4.4 µM
4) CC(C)(C)OC(=O)N1CCC2(C)CC(=O)CC=C12 (stereo not drawn)
> 100 µM
5) Cn1ccc2c(C(=O)c3ccccc3)cccc2c1=O
> 100 µM
6) Cc1ccc(N=Nc2ccc(N)cc2C)c(S(N)(=O)=O)c1
> 100 µM
7) CC1=C(C)C1[N+](=O)[O-]
> 100 µM
8) Cc1ccc2nc(-c3ccccc3)c(N=O)n2c1
> 100 µM
9) Oc1cc(-c2ccc(Cl)cc2)cn2c1nc1ccccc12
> 100 µM
10) Cc1cc2[nH]c(=O)c3c4ccccc4cn3c2cc1C
17.8 µM
11) C[C@]12CCC(=O)C(O)=C1CC[C@@H]1C2CC[C@]2(C)Nc3c(cnn3-c3ccccc3)CC12 (stereo partly drawn)
> 100 µM
12) O=C(O)c1cc(-c2ccncc2)nc2ccccc12
> 100 µM
13) N#CCCN(c1ccc(C=Nc2ccccc2Cl)cc1)S(=O)(=O)c1ccccc1
> 100 µM
14) CN(C)CCCN1c2ccccc2C(C)(C)c2ccccc21
25.5 µM
15) c1ccc2cc3[s+]snc3cc2c1
> 100 µM
16) NC(CCC(=O)NC(CSC(=O)N(O)c1ccccc1)C(=O)NCC(=O)O)C(=O)O (stereo not drawn)
> 1000 µM
17) COc1ccc(S(=O)(=O)Nc2cc(/C=C\c3cc(OC)c(OC)c(OC)c3)ccc2OC)cc1
20.6 µM
18) Cc1c(F)c(N)c2c(=O)cc(-c3ccc(N)c(F)c3)oc2c1F
0.114 µM
19) Oc1ccccc1C=Nc1nc(SCc2ccccc2)nc2[nH]ncc12
> 100 µM
20) CC1(C)OC(CP(c2ccccc2)c2ccccc2)C(CP(c2ccccc2)c2ccccc2)O1 (stereo not drawn)
> 100 µM
21) Cc1ccc([N+](=O)[O-])cc1NC(=O)c1cccc([N+](=O)[O-])c1O
89.7 µM
22) Cc1c(Cl)c(S(N)(=O)=O)cc2c1NC=NS2(=O)=O
> 100 µM
23) O=C(c1ccccc1)C(Br)C(Br)c1cccc([N+](=O)[O-])c1 (stereo not drawn)
3.58 µM
